ASSAYED SYSTEM: alpha-thrombin (Homo sapiens, UniProt P00734;P00734 P00734:328-363,P00734:364-622)
METHOD NOTES: filter; ±0.4; Fbmax 63.5; same buffer, 22 C
pKd: −log10 of the molar value.

{"BINDER": "Clone 8 (ssRNA) RNA: GGAGAGCGAAGAGAACGAGCGGGAUUGCACAAGAUAGCGUAGACUAAGUGACACAAAGCCCGG", "pKd": 8.80}

The origin of these recorded values is patent US20200002699.
